Attribution: patent EP0677522A1

Target or system Staphylococcus aureus FDA 209P: recorded MIC listed per item.
ASSAY ENDPOINT: MIC

- COMPOUND: "COc1c(N2CC[C@@](N)(CF)C2)c(F)cc2c(=O)c(C(=O)O)cn(C3CC3)c12 [Example 6]"
  TARGET OF ASSAY: "Staphylococcus aureus FDA 209P"
  MEASURED RESULT: "≤ 6 ng/mL"
- COMPOUND: "COc1c(N2CC[C@](N)(CF)C2)c(F)cc2c(=O)c(C(=O)O)cn(C3CC3)c12 [Example 5]"
  TARGET OF ASSAY: "Staphylococcus aureus FDA 209P"
  MEASURED RESULT: "≤ 6 ng/mL"
- COMPOUND: "COc1c(N2CCC(N)(CF)C2)c(F)cc2c(=O)c(C(=O)O)cn(C3CC3)c12 (stereo not drawn) [Example 1]"
  TARGET OF ASSAY: "Staphylococcus aureus FDA 209P"
  MEASURED RESULT: "≤ 6 ng/mL"
